- test_target: AR (Homo sapiens, UniProt P10275)
- Construct: Degradation of AR; Cellular potency; host or cells: VCaP cells
- Sequence (P10275 whole entry): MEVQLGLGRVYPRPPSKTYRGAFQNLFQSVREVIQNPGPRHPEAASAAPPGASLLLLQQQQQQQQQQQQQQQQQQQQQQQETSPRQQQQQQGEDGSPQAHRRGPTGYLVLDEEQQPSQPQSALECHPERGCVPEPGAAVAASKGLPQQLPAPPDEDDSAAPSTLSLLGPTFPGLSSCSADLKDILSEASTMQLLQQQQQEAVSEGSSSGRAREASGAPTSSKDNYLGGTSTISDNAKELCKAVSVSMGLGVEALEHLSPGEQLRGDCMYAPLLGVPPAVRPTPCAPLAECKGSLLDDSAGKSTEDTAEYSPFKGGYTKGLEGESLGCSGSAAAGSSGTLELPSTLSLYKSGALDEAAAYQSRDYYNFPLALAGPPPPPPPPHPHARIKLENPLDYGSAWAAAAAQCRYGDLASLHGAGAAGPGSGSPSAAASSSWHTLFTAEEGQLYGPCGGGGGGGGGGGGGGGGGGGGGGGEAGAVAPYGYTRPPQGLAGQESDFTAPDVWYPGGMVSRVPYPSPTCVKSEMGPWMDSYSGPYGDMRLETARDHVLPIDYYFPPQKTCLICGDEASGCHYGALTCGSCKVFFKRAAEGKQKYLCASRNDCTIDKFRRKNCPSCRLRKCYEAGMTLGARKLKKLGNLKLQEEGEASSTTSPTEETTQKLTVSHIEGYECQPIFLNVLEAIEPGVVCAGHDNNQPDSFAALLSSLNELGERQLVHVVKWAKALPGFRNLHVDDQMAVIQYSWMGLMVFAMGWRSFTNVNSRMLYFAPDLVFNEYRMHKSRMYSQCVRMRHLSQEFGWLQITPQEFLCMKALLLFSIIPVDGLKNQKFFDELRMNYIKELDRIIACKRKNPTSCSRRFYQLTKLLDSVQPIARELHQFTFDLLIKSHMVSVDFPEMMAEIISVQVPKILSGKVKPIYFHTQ
- measurement_protocol: Degradation of AR in VCaP cells
- Format: cell-based
- experimental_context: VCaP cells
For each of the molecules below, state its DC50.

In: Which value of DC50 has been reported for C[C@H]1CC2(CCN(c3ccc(S(=O)(=O)C4CCN(C(=O)CN5Cc6cc7c(cc6C5)C(=O)N(C5CCC(=O)NC5=O)C7=O)CC4)cc3)CC2)CN1c1ccc(C#N)c(Cl)c1 (stereo partly drawn) in the records?
Out: < 1 nM

In: Which value of DC50 has been reported for C[C@H]1CC2(CCN(c3ccc(C4CCN(CC5CN(c6ccc7c(c6)C(=O)N(C6CCC(=O)NC6=O)C7=O)C5)CC4)cn3)CC2)CN1c1ccc(C#N)c(Cl)c1 (stereo partly drawn) in the records?
Out: < 1 nM

In: Which value of DC50 has been reported for C[C@H]1CC2(CCN(c3ccc(N4CCC(N(C)C5CN(c6ccc7c(c6)C(=O)N(C6CCC(=O)NC6=O)C7=O)C5)CC4)nn3)CC2)CN1c1ccc(C#N)c(Cl)c1 (stereo partly drawn) in the records?
Out: < 10 nM

In: Which value of DC50 has been reported for COC1(CN2CCN(c3ccc(N4CCC5(CC4)C[C@H](C)N(c4ccc(C#N)c(Cl)c4)C5)nc3)CC2)CN(c2ccc3c(c2)C(=O)N(C2CCC(=O)NC2=O)C3=O)C1 (stereo partly drawn) in the records?
Out: < 1 nM

In: Which value of DC50 has been reported for C[C@H]1CC2(CCN(c3ccc(CN4CCN(C5CN(c6ccc7c(c6)C(=O)N(C6CCC(=O)NC6=O)C7=O)C5)CC4)nn3)CC2)CN1c1ccc(C#N)c(Cl)c1 (stereo partly drawn) in the records?
Out: < 1 nM

In: Which value of DC50 has been reported for C[C@H]1CC2(CCN(c3ccc(CN4CCN(C5CCN(c6ccc7c(c6)C(=O)N(C6CCC(=O)NC6=O)C7=O)CC5)CC4)cn3)CC2)CN1c1ccc(C#N)c(Cl)c1 (stereo partly drawn) in the records?
Out: < 1 nM

In: Which value of DC50 has been reported for COC1(CN2Cc3cc4c(cc3C2)C(=O)N(C2CCC(=O)NC2=O)C4=O)CCN(C(=O)c2ccc(N3CCC4(CC3)C[C@H](C)N(c3ccc(C#N)c(F)c3)C4)cc2)CC1 (stereo partly drawn) in the records?
Out: < 100 nM

In: Which value of DC50 has been reported for C[C@H]1CC2(CCN(c3ccc(OC4CN(C5CCN(c6ccc7c(c6)C(=O)N(C6CCC(=O)NC6=O)C7=O)CC5)C4)cc3)CC2)CN1c1ccc(C#N)c(Cl)c1 (stereo partly drawn) in the records?
Out: < 1 nM

In: Which value of DC50 has been reported for C[C@H]1CC2(CCN(c3ccc(N4CCC(OC5CN(c6ccc7c(c6)C(=O)N(C6CCC(=O)NC6=O)C7=O)C5)CC4)cn3)CC2)CN1c1ccc(C#N)c(Cl)c1 (stereo partly drawn) in the records?
Out: < 1 nM

In: Which value of DC50 has been reported for C[C@H]1CC2(CCN(c3ccc(N4CCN(CC5CCN(c6ccc7c(c6)C(=O)N(C6CCC(=O)NC6=O)C7=O)CC5)CC4)cn3)CC2)CN1c1ccc(C#N)c(Cl)c1 (stereo partly drawn) in the records?
Out: < 1 nM

In: Which value of DC50 has been reported for C[C@H]1CC2(CCN(c3ccc(C4CCN(CC5CCN(c6ccc7c(c6)C(=O)N(C6CCC(=O)NC6=O)C7=O)CC5)CC4)cn3)CC2)CN1c1ccc(C#N)c(Cl)c1 (stereo partly drawn) in the records?
Out: < 1 nM

In: Which value of DC50 has been reported for C[C@H]1CC2(CCN(c3ccc(OC4CN(C5CN(c6ccc7c(c6)C(=O)N(C6CCC(=O)NC6=O)C7=O)C5)C4)cc3)CC2)CN1c1ccc(C#N)c(Cl)c1 (stereo partly drawn) in the records?
Out: < 1 nM

In: Which value of DC50 has been reported for C[C@H]1CC2(CCN(c3ccc(C4CCN(C(=O)CN5Cc6cc7c(cc6C5)C(=O)N(C5CCC(=O)NC5=O)C7=O)CC4)cc3)CC2)CN1c1ccc(C#N)c(Cl)c1 (stereo partly drawn) in the records?
Out: < 100 nM

In: Which value of DC50 has been reported for C[C@H]1CC2(CCN(c3ccc(N4CCN(C5CCN(c6ccc7c(c6)C(=O)N(C6CCC(=O)NC6=O)C7=O)CC5)CC4)cc3)CC2)CN1c1ccc(C#N)c(Cl)c1 (stereo partly drawn) in the records?
Out: < 100 nM

In: Which value of DC50 has been reported for C[C@H]1CC2(CCN(c3ccc(N4CCN(CC5CCN(c6ccc7c(c6)C(=O)N(C6CCC(=O)NC6=O)C7=O)CC5)CC4)nc3)CC2)CN1c1ccc(C#N)c(Cl)c1 (stereo partly drawn) in the records?
Out: < 1 nM

In: Which value of DC50 has been reported for C[C@H]1CC2(CCN(c3ccc(OC4CCN(C5CN(c6ccc7c(c6)C(=O)N(C6CCC(=O)NC6=O)C7=O)C5)CC4)nc3)CC2)CN1c1ccc(C#N)c(Cl)c1 (stereo partly drawn) in the records?
Out: < 1 nM

In: Which value of DC50 has been reported for C[C@H]1CC2(CCN(c3cnc(CN4CCN(C5CN(c6cc7c(cc6F)C(=O)N(C6CCC(=O)NC6=O)C7=O)C5)CC4)nc3)CC2)CN1c1ccc(C#N)c(Cl)c1 (stereo partly drawn) in the records?
Out: < 1 nM

In: Which value of DC50 has been reported for C[C@H]1CC2(CCN(c3ccc(OC4CN(C5CCN(c6ccc7c(c6)C(=O)N(C6CCC(=O)NC6=O)C7=O)CC5)C4)nn3)CC2)CN1c1ccc(C#N)c(Cl)c1 (stereo partly drawn) in the records?
Out: < 100 nM

In: Which value of DC50 has been reported for C[C@H]1CC2(CCN(c3ccc(N4CCN(CC5CN(c6ccc7c(c6)C(=O)N(C6CCC(=O)NC6=O)C7=O)C5)CC4)cn3)CC2)CN1c1ccc(C#N)c(Cl)c1 (stereo partly drawn) in the records?
Out: < 1 nM

In: Which value of DC50 has been reported for C[C@H]1CC2(CCN(c3ccc(C(=O)N4CCC(CN5CCOc6cc7c(cc6C5)C(=O)N(C5CCC(=O)NC5=O)C7=O)CC4)cc3)CC2)CN1c1ccc(C#N)c(Cl)c1 (stereo partly drawn) in the records?
Out: < 10 nM

In: Which value of DC50 has been reported for C[C@H]1CC2(CCN(c3ccc(CN4CCN(C5CCN(c6ccc7c(c6)C(=O)N(C6CCC(=O)NC6=O)C7=O)CC5)CC4)c(F)c3)CC2)CN1c1ccc(C#N)c(Cl)c1 (stereo partly drawn) [compound 42] in the records?
Out: < 10 nM

----------
For each of the molecules below, state its IC50.
- Test system: VCaP cells
- measurement_protocol: Cellular potency (IC50) in VCaP cells
- Assay type: cell-based
- experimental_context: Homo sapiens, VCaP

In: Which value of IC50 has been reported for C[C@H]1CC2(CCN(c3ccc(C4CCN(CC5CCN(c6ccc7c(c6)C(=O)N(C6CCC(=O)NC6=O)C7=O)CC5)CC4)cn3)CC2)CN1c1ccc(C#N)c(Cl)c1 (stereo partly drawn) in the records?
Out: < 0.01 µM

In: Which value of IC50 has been reported for C[C@H]1CC2(CCN(c3ccc(OC4CN(C5CN(c6ccc7c(c6)C(=O)N(C6CCC(=O)NC6=O)C7=O)C5)C4)cn3)CC2)CN1c1ccc(C#N)c(Cl)c1 (stereo partly drawn) in the records?
Out: < 0.01 µM

In: Which value of IC50 has been reported for C[C@H]1CC2(CCN(c3ccc(C4CCN(C5CN(c6ccc7c(c6)C(=O)N(C6CCC(=O)NC6=O)C7=O)C5)CC4)cc3)CC2)CN1c1ccc(C#N)c(Cl)c1 (stereo partly drawn) in the records?
Out: < 0.1 µM

----------
- System: VCaP cells
- measurement_protocol: Cellular potency (IC50) in VCaP cells
- Type: cell-based
- experimental_context: Homo sapiens, VCaP
For each of the molecules below, state its IC50.

In: Which value of IC50 has been reported for C[C@H]1CC2(CCN(c3ccc(N4CCC(CN5CCN(c6ccc7c(c6)C(=O)N(C6CCC(=O)NC6=O)C7=O)CC5)CC4)nc3)CC2)CN1c1ccc(C#N)c(Cl)c1 (stereo partly drawn) [compound 53] in the records?
Out: < 0.1 µM

In: Which value of IC50 has been reported for C[C@H]1CC2(CCN(c3cnc(CN4CCN(C5CCN(c6ccc7c(c6)C(=O)N(C6CCC(=O)NC6=O)C7=O)CC5)CC4)nc3)CC2)CN1c1ccc(C#N)c(Cl)c1 (stereo partly drawn) [compound 171] in the records?
Out: < 0.1 µM

In: Which value of IC50 has been reported for C[C@H]1CC2(CCN(c3ccc(CN4CC(N5CCN(c6cc7c(cc6F)C(=O)N(C6CCC(=O)NC6=O)C7=O)CC5)C4)cn3)CC2)CN1c1ccc(C#N)c(Cl)c1 (stereo partly drawn) [compound 205] in the records?
Out: < 0.01 µM
